Target: Mitogen-activated protein kinase kinase kinase kinase 1 (Homo sapiens, UniProt Q92918)
Sequence (Q92918 whole entry): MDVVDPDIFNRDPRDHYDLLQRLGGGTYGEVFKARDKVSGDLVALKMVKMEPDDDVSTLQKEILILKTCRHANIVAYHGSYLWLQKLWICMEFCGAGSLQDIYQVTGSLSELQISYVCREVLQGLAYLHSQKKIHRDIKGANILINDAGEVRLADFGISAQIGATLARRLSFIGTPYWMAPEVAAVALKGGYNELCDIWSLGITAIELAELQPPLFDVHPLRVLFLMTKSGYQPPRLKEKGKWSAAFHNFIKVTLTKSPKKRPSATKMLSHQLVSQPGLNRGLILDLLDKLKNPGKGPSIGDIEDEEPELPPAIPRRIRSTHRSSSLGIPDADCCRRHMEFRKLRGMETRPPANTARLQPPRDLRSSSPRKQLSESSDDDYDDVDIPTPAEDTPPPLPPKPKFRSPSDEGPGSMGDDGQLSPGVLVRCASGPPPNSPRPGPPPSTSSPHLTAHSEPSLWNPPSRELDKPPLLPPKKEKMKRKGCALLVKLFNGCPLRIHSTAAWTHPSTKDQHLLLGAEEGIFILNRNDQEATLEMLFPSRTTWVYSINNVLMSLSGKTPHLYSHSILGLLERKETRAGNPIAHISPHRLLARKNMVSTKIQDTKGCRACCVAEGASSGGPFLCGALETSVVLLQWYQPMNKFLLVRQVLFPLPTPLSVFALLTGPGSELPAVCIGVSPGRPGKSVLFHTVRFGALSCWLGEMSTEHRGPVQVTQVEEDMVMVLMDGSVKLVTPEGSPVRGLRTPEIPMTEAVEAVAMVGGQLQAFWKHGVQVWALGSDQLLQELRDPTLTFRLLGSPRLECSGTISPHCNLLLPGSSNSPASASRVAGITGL
Test: Inhibition of HPK1 (unknown origin) using myelin basic protein as substrate incubated for 60 mins in presence of ATP by ADP-Glo kinase assay
pIC50: −log10 of the molar value.
Is pIC50 at least 8? Then Yes. If not, No.

Has Cc1c(-c2cc(N)c3cnc(Nc4cc(C)n(C)n4)nc3c2)cnc2c1NCCO2 a recorded pIC50 greater than or equal to 8?
No

Has Cc1c(-c2cc3cc(NC(=O)C4CC4)ncc3c(N)c2F)cnc2c1NCCO2 a recorded pIC50 greater than or equal to 8?
Yes

Has Cc1c(-c2cc(N)c3cnc(Nc4cccnc4)nc3c2)cnc2c1NCCO2 a recorded pIC50 greater than or equal to 8?
Yes

Has Cc1c(-c2cc(N)c3cnc(Nc4ccc5c(c4)CCN(C)C5)nc3c2)cnc2c1NCCO2 a recorded pIC50 greater than or equal to 8?
Yes

Has CNCCc1ccc(Nc2ncc3c(N)cc(-c4cnc5c(c4C)NCCO5)cc3n2)cc1 a recorded pIC50 greater than or equal to 8?
Yes

Has Cc1ccncc1-c1cc(N)c2cnc(Nc3cnn(C4CC4)c3)nc2c1 a recorded pIC50 greater than or equal to 8?
No

Has Cc1c(-c2cc(N)c3cnc(Nc4ccc5c(c4)CCNC5)nc3c2)cnc2c1NCCO2 a recorded pIC50 greater than or equal to 8?
Yes

Has Cc1c(-c2cc(N)c3cnc(Nc4ccc5c(c4)CNCC5)nc3c2)cnc2c1NCCO2 a recorded pIC50 greater than or equal to 8?
Yes

Has Cn1cc(-c2cc(N)c3cnc(Nc4cnn(C5CC5)c4)nc3c2)cn1 a recorded pIC50 greater than or equal to 8?
No
